assay: qHTS of pediatric cancer cell lines to identify multiple opportunities for drug repurposing: Primary screen for SK-N-SH cells (AID 1347098); details: SK-N-SH viability, CellTiter-Glo luminescence, 48 h; series mostly up to 57 µM; also: nearly all actives have a fitted effect of over 65% in size; also: potency is read from the fitted curve at half-maximal effect
Inconclusive results are not listed. The source made the active and inactive calls. Calls follow the shape of the dose curve; as a rule, active = well fitted cell-killing curve with a large enough effect; inconclusive = small, poorly fitted or top-dose-only effect; inactive = no such curve, though single readings can be large or run the other way.
ASSAY_ENDPOINT: Potency

> print(dat)
                                   molecule             result
1  CCOP(=O)(OCC)C(C)NC(=O)N(CCCl)N=O (configuration not stated)           inactive
2                             O=C(O)C(Cl)Cl           inactive
3                       CN(C)NC(=O)CCC(=O)O           inactive
4  Cc1[nH]nc2ccc(-c3cncc(OC[C@@H](N)Cc4c[nH]c5ccccc45)c3)cc12  0.304 µM (active)
5  O=S(=O)(CC1CS1)c1ccc(Oc2ccccc2)cc1 (configuration not stated)   24.1 µM (active)
6  CC(C)[C@H]1C(=O)N[C@H](CO)Cc2c[nH]c3cccc(c23)N1C           inactive

Give recorded Potency. `C1=C2CCCN[C@H]2[C@@H]2C[C@H]1[C@@H]1CCCCN1C2`
inactive

Give recorded Potency. `C[C@@]12OC(=O)[C@]1([C@@H](O)[C@@H]1C=CCCC1)NC(=O)[C@H]2CCCl`
0.171 µM (active)

Give recorded Potency. `COCCOCCO`
inactive

---

assay: qHTS of pediatric cancer cell lines to identify multiple opportunities for drug repurposing: Confirmatory screen for control Hh wild type fibroblast cells (AID 1347121); conditions: viability qHTS; series mostly up to 45.9 µM; also: nearly all actives have a fitted effect of over 70% in size
Records with an inconclusive call do not appear. The source made the active and inactive calls. Calls follow the shape of the dose curve; as a rule, active = well fitted cell-killing curve with a large enough effect; inconclusive = small, poorly fitted or top-dose-only effect, or effect the other way; inactive = flat fitted curve, though single readings scatter.
Please reply with one of these outcomes: YES = active, NO = inactive

How was `CC[C@H]1C=CC=CC[C@@H](C)[C@H](O)[C@@](C)(O)C(=O)[C@@H](C)[C@H](O)[C@@H](C)C(=O)[C@@H](C)[C@H](O)[C@@H](C)C=CC(=O)O[C@@H]2[C@@H](C)[C@H](CC1)O[C@]1(CC[C@H](C)[C@H](C[C@@H](C)O)O1)[C@H]2C` classified in this test?
YES

How was COc1cc([C@@H]2c3cc4c(cc3[C@@H](O)C3COC(=O)C32)OCO4)cc(OC)c1O (some centres undefined) classified in this test?
NO

How was `COc1ccc(C(=O)c2c(C)n(CCN3CCOCC3)c3cc(I)ccc23)cc1` classified in this test?
NO

How was `S=C(SSC(=S)N1CCCCC1)N1CCCCC1` classified in this test?
NO

---

system: KB-3-1; assay: Cytotoxic Profiling of Annotated Libraries Using Quantitative High-Throughput Screening (AID 1296008); conditions: Five cell lines viability, CellTiter-Glo ATP luminescence, 48-72 h; also: nearly all actives have a fitted effect of over 60% in size
Inconclusive results are not listed. Calls of active or inactive are those of the source. Calls come from the whole dose curve; as a rule, active = well fitted inhibition curve with a large enough effect; inconclusive = small, poorly fitted or top-dose-only effect; inactive = flat fitted curve, though single readings scatter.
Please reply with one of these outcomes: active, inactive

> print(dat)
                                   molecule  answer.label
1  CC[C@@]1(O)C(=O)OCc2c1cc1n(c2=O)Cc2cc3ccccc3nc2-1        active
2  O=C(Nc1ccncc1)C(=O)c1cn(Cc2ccc(Cl)cc2)c2ccccc12        active
3  C/C=C(/C)C(=O)O[C@H]1C(C)=C2[C@H]([C@@H]1OC(=O)CCCCCCC)[C@@](C)(OC(C)=O)C[C@H](OC(=O)CCC)[C@@]1(O)[C@H]2OC(=O)[C@@]1(C)O        active

Now, please, on to the next molecule.
How was CCNC(=O)CC1N=C(c2ccc(Cl)cc2)c2cc(OC)ccc2-n2c(C)nnc21 (centres undefined) classified in this test?
inactive

---

experiment: qHTS for Inhibitors of ATXN expression: Validation (AID 588378); details: cell-based ATXN2 expression reporter assay, luminescence; series mostly up to 57.1 µM; also: % is scaled to controls: 0 for no effect and ±100 for the full control effect; nearly all actives have a fitted effect of over 75% in size
Inconclusive results are not listed. The source made the active and inactive calls. The call rests on the fitted dose curve; in most records, active means well fitted inhibition curve with a large enough effect; inconclusive means small, poorly fitted or top-dose-only effect; inactive means no such curve, though single readings can be large or run the other way.
Please reply with one of these outcomes: y = active, n = inactive

Take a look at these entries with their results.
> print(dat)
                                   molecule  answer.label
1  Clc1cnc(Oc2ccc(Oc3ncc(Cl)cc3Cl)cc2)c(Cl)c1             n
2                     O=C1CCCN1CC#CCN1CCCC1             n
3        O=C(N[C@H]1CN2CCC1CC2)c1ccc(Cl)cc1             n

How was `CC(C)Oc1cccnc1N(C)C1CCN(Cc2ccccc2)CC1` classified in this test?
n

How was `NCc1cc(=O)[nH]o1` classified in this test?
n

How was `Cc1nccc2c1[nH]c1ccccc12` classified in this test?
n

How was `CNCCc1c[nH]c2ccc(O)cc12` classified in this test?
n

How was C[C@]12CCC3C(CC[C@H]4C[C@H](O)CC[C@]34C)C1CC[C@@H]2C(=O)CO (stereo partly drawn) classified in this test?
n

---

assay: qHTS profiling of the MIPE4 collection as inhibitors of Plasmodium falciparum (HB3) proliferation (AID 743347);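 also: plate controls were DMSO vehicle wells for no effect and artemisinin wells for full effect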; settings: P. falciparum HB3 in erythrocytes, SYBR Green DNA, 72 h; at 28.5 µM (top of the series)
ASSAY_ENDPOINT: growth, % of control

> print(dat)
                                   compound        assay.endpoint  result
1        CN[C@@H]1Cc2cccc3[nH]c(=O)n(c23)C1  growth, % of control   85.5%
2  C#CC1(O)CCC2C3CCC4=CC(=O)CCC4(C)C3CCC21C (stereo unspecified)  growth, % of control     89%
3  O=C1C=CC[C@@H]2[C@H]3CCCN4CCC[C@@H](CN12)[C@@H]34  growth, % of control   97.5%

Give recorded growth, % of control. `CC(C)[C@H]1C(=O)N[C@H](CO)Cc2c[nH]c3cccc(c23)N1C`
88.8%

Give recorded growth, % of control. O=S(=O)(CC1CS1)c1ccc(Oc2ccccc2)cc1 (stereo unspecified)
106%

Give recorded growth, % of control. `Cc1c(C(=O)Nc2cccc(C(F)(F)F)c2)cc(-c2ccccc2)n1CCCN1CCOCC1`
10.9%

---

experiment: Cell Viability - LYMP2-017 (AID 972); settings: LYMP2-017 lymphoblastoid cell viability; series mostly up to 92.2 µM;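 also: cells exposed to compound for 24 hours at 37 °C; nearly all actives have a fitted effect of over 55% in size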
Records with an inconclusive call do not appear. Calls of active or inactive are those of the source. Calls come from the whole dose curve; as a rule, active = well fitted cell-killing curve with a large enough effect; inconclusive = small, poorly fitted or top-dose-only effect; inactive = flat fitted curve, though single readings scatter.
Please reply with one of these outcomes: 1.0 (active), 0.0 (inactive)

Take a look at these entries with their results.
> print(dat)
                                   compound  answer.label
1                       C=CC(=O)NCNC(=O)C=C           0.0
2                            Nc1ccc(Cl)cc1N           0.0
3                             Nc1ccc(Cl)cc1           0.0
4  O=[N+]([O-])c1cc([N+](=O)[O-])c2ccccc2c1           0.0

Now, please, on to the next compound.
How was `CC(=O)[O][Hg][c]1ccccc1` classified in this test?
1.0

---

experiment: qHTS assay for measurement of the activity of small molecule inhibitors on Zika virus induced Caspase-3 activity in human astrocytoma cells (AID 1224859); settings: SNB-19 ZIKV-induced caspase-3/7, luminescence, 6 h; series mostly up to 45.7 µM;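 also: plate controls were ZIKV-infected untreated cells for no effect and uninfected cells for full effect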
Active and inactive are the calls of the source. Calls follow the shape of the dose curve; as a rule, active = well fitted inhibition curve with a large enough effect; inconclusive = small, poorly fitted or top-dose-only effect; inactive = no such curve, though single readings can be large or run the other way.
ASSAY_ENDPOINT: outcome

Worked examples follow.
> print(dat)
                                   compound    result
1  CC(=Cc1csc(C)n1)[C@@H]1C[C@H]2O[C@@H]2CCC[C@H](C)[C@@H](O)[C@@H](C)C(=O)C(C)(C)[C@@H](O)CC(=O)O1  inactive
2  CC(C)(C)[C@]1(O)C[C@@H]2OC(=O)C[C@@]23C(=O)O[C@@H]2OC(=O)[C@H](O)C213 (stereo partly drawn)  inactive
3  N#C[C@H](O[C@@H]1O[C@H](CO[C@@H]2O[C@H](CO)[C@H](O)[C@H](O)[C@H]2O)[C@H](O)[C@H](O)[C@H]1O)c1ccccc1  inactive
4        CC(C)(C)c1cc(C=C(C#N)C#N)cc(Br)c1O  inactive
5                 CC[C@@H](C(N)=O)N1CCCC1=O  inactive

Give recorded outcome. `C[C@@H]1CC[C@H]2[C@@H](C)C(=O)O[C@@H]3O[C@@]4(C)CC[C@H]1[C@]32OO4`
inactive

Give recorded outcome. `C[C@]12CC[C@H]3[C@@H](CCC4=CC(=O)CC[C@@]43C)[C@H]1CC[C@H]2OC(=O)CCC1CCCC1`
inactive

Give recorded outcome. `C[C@]12CC[C@H](O)CC1=CC[C@H]1[C@H]3CCC(=O)[C@@]3(C)CC[C@@H]12`
inactive

FYI, the data here is from PubChem BioAssay (NCATS).
